# assay: LD50 p.o. (acute toxicity)
# settings: in vivo, po, species not given
property_measured: LD50

molecule	result
CC(C)CN(CC(C)C)c1ccc(C(=O)c2ccccc2)cc1[N+](=O)[O-] [Example B9]	> 3000 mg/kg
CC[N+]1(C)CCN(c2ccc(C(=O)c3ccccc3)cc2[N+](=O)[O-])CC1 [Example B11]	> 3000 mg/kg
O=C(c1ccccc1)c1ccc(N2CCOCC2)c([N+](=O)[O-])c1 [Example B2, 3-nitro-4-morpholino-benzophenone]	1200 mg/kg
